Experiment: qHTS for Inhibitors of human tyrosyl-DNA phosphodiesterase 1 (TDP1): qHTS in cells in presence of CPT; note: nearly all actives have a fitted effect of over 55% in size
Details: chicken DT40 Tdp1-/-;hTDP1 cells + 20 nM CPT, ATP luminescence, 48 h; series mostly up to 46.2 µM
About 50,000 (12%) of roughly 420,000 compounds were called active. Inconclusive results (about 26%) are left out. Calls come from the whole dose curve; as a rule, active = well fitted inhibition curve with a large enough effect; inconclusive = small, poorly fitted or top-dose-only effect; inactive = flat fitted curve, though single readings scatter. Only a selection was taken, and actives are over-represented in it overall.
Form entry, call: pick from 1 for active, 0 for inactive

[[record]]
compound = "Cc1ccc2nc(COc3cccc(NC(=O)c4ccccc4Cl)c3)cc(=O)n2c1"
assigned_class = 0

[[record]]
compound = "CCn1nc(C)c(CNC(=O)C2CCC(=O)N(Cc3cccc(F)c3)C2)c1C (stereo not given)"
assigned_class = 0

[[record]]
compound = "COC(=O)[C@@H]1CCCN1C(=O)c1cc(COc2cccc3cccnc23)on1"
assigned_class = 0

[[record]]
compound = "Cc1occc(=O)c1OCc1ccc(F)cc1"
assigned_class = 0

[[record]]
compound = "COc1cc2c(=O)n(C)c3ccccc3c2cc1OC"
assigned_class = 1

[[record]]
compound = "CC1O[C@H](OC2C(COC3OC(CO)C(O)[C@H](O)C3O)OC(OC3CC[C@]4(C)C(CC[C@@]5(C)[C@@H]4C=C[C@]46OC[C@@]7(CCC(C)(C)C[C@H]74)C(O)C[C@@]56C)C3(C)C)C(O)C2O)C(O)C(O)C1O (stereo not given in full)"
assigned_class = 0

[[record]]
compound = "COc1cccc2c(O)cc(=O)n(C)c12"
assigned_class = 0

[[record]]
compound = "CCc1ccc2c(c1)C(c1ccc([N+](=O)[O-])cc1)=NNC(c1ccccc1)=N2"
assigned_class = 0


Any idea what this test logged for COc1ccc(NC(=O)CS(=O)(=O)c2ccccc2)cc1 ?
0

# lookup: test call for Cc1ccc(OCc2cc(C(=O)N(C)CCn3ccnc3C)no2)cc1C
0
